experimental_system: UniProt:Q9UK32
Sequence (Q9UK32 whole entry, looked up): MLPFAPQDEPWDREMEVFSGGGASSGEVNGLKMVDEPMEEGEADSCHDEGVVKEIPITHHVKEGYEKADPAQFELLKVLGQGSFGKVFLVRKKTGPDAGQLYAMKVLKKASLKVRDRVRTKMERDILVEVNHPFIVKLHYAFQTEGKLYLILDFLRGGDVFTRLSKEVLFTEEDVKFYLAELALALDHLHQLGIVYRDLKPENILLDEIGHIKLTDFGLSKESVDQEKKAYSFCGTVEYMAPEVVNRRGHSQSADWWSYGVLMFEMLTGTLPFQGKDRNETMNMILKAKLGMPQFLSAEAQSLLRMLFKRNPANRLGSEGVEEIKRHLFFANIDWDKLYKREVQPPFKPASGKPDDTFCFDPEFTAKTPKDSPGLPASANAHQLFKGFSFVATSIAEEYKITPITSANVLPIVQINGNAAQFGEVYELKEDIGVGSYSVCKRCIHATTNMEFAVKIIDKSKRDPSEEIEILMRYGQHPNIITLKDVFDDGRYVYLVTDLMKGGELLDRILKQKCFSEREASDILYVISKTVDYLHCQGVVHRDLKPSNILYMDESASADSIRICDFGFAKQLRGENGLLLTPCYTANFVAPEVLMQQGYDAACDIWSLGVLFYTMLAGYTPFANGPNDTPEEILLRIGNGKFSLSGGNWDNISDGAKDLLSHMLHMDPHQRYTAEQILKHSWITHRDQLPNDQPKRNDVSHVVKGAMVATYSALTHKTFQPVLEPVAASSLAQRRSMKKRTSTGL
method: radiometric filter-binding kinase assay, Kinase HotSpot
condition_label: compound 0.5 µM; ATP 10 µM

- smiles_repr: "CCCC(=O)Oc1ccc2[nH]c(C(=O)c3cc4ccccc4[nH]3)cc2c1"
  experimental_system: "UniProt:Q9UK32"
  uom: "%"
  residual activity: 95.4
- smiles_repr: "COc1ccc2c(c[n+](C)c3c4cc5c(cc4ccc23)OCO5)c1OC"
  experimental_system: "UniProt:Q9UK32"
  uom: "%"
  residual activity: 91.1
- smiles_repr: "N#CC(C#N)=C(N)/C(C#N)=C/c1ccc(O)cc1"
  experimental_system: "UniProt:Q9UK32"
  uom: "%"
  residual activity: 104
- smiles_repr: "N#C/C(=C(/N)Sc1ccc(N)cc1)c1ccccc1C(F)(F)F"
  experimental_system: "UniProt:Q9UK32"
  uom: "%"
  residual activity: 83.9
- smiles_repr: "Nc1ncnc2c1c(-c1ccc(Oc3ccccc3)cc1)cn2C1CCCC1"
  experimental_system: "UniProt:Q9UK32"
  uom: "%"
  residual activity: 96.6
- smiles_repr: "CCC(=O)Nc1ccc2ncnc(Nc3cccc(Br)c3)c2c1"
  experimental_system: "UniProt:Q9UK32"
  uom: "%"
  residual activity: 90.6
- smiles_repr: "CCN(CC)CCNC(=O)c1c(C)[nH]c(/C=C2\\C(=O)Nc3ccc(F)cc32)c1C"
  experimental_system: "UniProt:Q9UK32"
  uom: "%"
  residual activity: 17.5
- smiles_repr: "CC(=O)c1ccc(N2CCOCC2)cc1O"
  experimental_system: "UniProt:Q9UK32"
  uom: "%"
  residual activity: 95.1
- smiles_repr: "O=c1cc(N2CCOCC2)oc2c1ccc1ccccc12"
  experimental_system: "UniProt:Q9UK32"
  uom: "%"
  residual activity: 95.4
- smiles_repr: "Cc1ccc(S(=O)(=O)/C=C/C#N)cc1"
  experimental_system: "UniProt:Q9UK32"
  uom: "%"
  residual activity: 95.4
- smiles_repr: "CNc1cc2c(Nc3cccc(Br)c3)ncnc2cn1"
  experimental_system: "UniProt:Q9UK32"
  uom: "%"
  residual activity: 81.8
- smiles_repr: "Oc1cccc(-c2nc(N3CCOCC3)c3oc4ncccc4c3n2)c1"
  experimental_system: "UniProt:Q9UK32"
  uom: "%"
  residual activity: 98.2
- smiles_repr: "CC#CC(=O)Nc1cc2c(Nc3ccc(F)c(Cl)c3)ncnc2cn1"
  experimental_system: "UniProt:Q9UK32"
  uom: "%"
  residual activity: 95.3
- smiles_repr: "COc1ccc(COc2ccc(Cc3cnc(N)nc3N)cc2OC)cc1"
  experimental_system: "UniProt:Q9UK32"
  uom: "%"
  residual activity: 101

====

Quick list: residual activity per entry.
experimental_system: PRKCA (human)
method: radiometric filter-binding kinase assay, Kinase HotSpot
condition_label: compound 0.5 µM; ATP 10 µM
readout_label: residual activity

- smiles_repr: "CC#CC(=O)Nc1cc2c(Nc3ccc(F)c(Cl)c3)ncnc2cn1"
  experimental_value: "101%"
- smiles_repr: "CCN(CC)CCNC(=O)c1c(C)[nH]c(/C=C2\\C(=O)Nc3ccc(Cl)cc32)c1C"
  experimental_value: "93.1%"
- smiles_repr: "CCN(CC)CCNC(=O)c1c(C)[nH]c(/C=C2\\C(=O)Nc3ccc(F)cc32)c1C"
  experimental_value: "79.9%"
- smiles_repr: "CNC(=O)c1cc(Oc2ccc(NC(=O)Nc3ccc(Cl)c(C(F)(F)F)c3)cc2)ccn1"
  experimental_value: "96.8%"
